settings: 298.15 K; 101.33 kPa; Liquid; Vibrating tube method
Numbers after ± are expanded uncertainties.
Reported mass density by item:
Remember to quote the unit after the number.

Use these answered entries as a reference point.
>>> reportedresult("C1CCCCC1 [cyclohexane]")
"773.8 ± 0.13 kg/m3"
>>> reportedresult("CCc1ccccc1 [ethylbenzene]")
"862.51 ± 0.11 kg/m3"
>>> reportedresult("CC1CCCCC1 [methylcyclohexane]")
"765.02 ± 0.13 kg/m3"

Return reported mass density; argument: C1CCCCCCC1 [cyclooctane] 831.47 ± 0.24 kg/m3

Try this compound too: CCOS(=O)(=O)[O-].CCn1cc[n+](C)c1 [1-ethyl-3-methylimidazolium ethyl sulfate] 1237.23 ± 0.43 kg/m3

====

test: refractive index (Na D-line) (dimensionless); conditions: 298.15 K; 101.33 kPa; Liquid; Standard Abbe refractometry
Reported refractive index by item:
When you answer, write just the number.

>>> reportedresult("C1CCCCCCC1 [cyclooctane]")
1.45598
>>> reportedresult("CCc1ccccc1 [ethylbenzene]")
1.49304
>>> reportedresult("C1CCCCC1 [cyclohexane]")
1.4236
>>> reportedresult("CCOS(=O)(=O)[O-].CCn1cc[n+](C)c1 [1-ethyl-3-methylimidazolium ethyl sulfate]")
1.4791

Next item in the queue.
Return reported refractive index; argument: CC1CCCCC1 [methylcyclohexane] 1.42062

// data source = the NIST ThermoML archive (doi:10.1016/j.jct.2010.12.014)
